B1: Zinc finger homeobox protein 4, residues 2086 to 2141; numbered along this chain, Q86UP3 (parent)
chain: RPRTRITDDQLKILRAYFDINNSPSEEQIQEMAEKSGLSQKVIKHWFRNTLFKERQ

Variants of: B1
assay overview: abundance fitness (aPCA) (normalised: wild type 0, dead -1); higher = more abundant; growth selection in yeast, the domain comes from the species named
condition set: Homo sapiens
Tag: label 1 if measured abundance fitness is not below -0.07, label 0 if it is.

{"macromolecule sequence": "RPRTRITDDQLKILRAYFDINNSPSEEQIQEMAEKSGLSQKVIKHWFRSTLFKERQ [N49S]", "assigned class": "label 1"}
{"macromolecule sequence": "RPRTRITDDQLKILRAYFDINNSDSEEQIQEMAEKSGLSQKVIKHWFRNTLFKERQ [P24D]", "assigned class": "label 0"}
{"macromolecule sequence": "RPRTRITDDQLKILRAYFDINNSPFEEQIQEMAEKSGLSQKVIKHWFRNTLFKERQ [S25F]", "assigned class": "label 0"}

Threshold query (abundance fitness >= -0.07) on RPRTRITDDQLKILRAYFDINNSPSEEKIQEMAEKSGLSQKVIKHWFRNTLFKERQ [Q28K]
label 1

Is abundance fitness at least -0.07? Consider RPRTRITDDQLKILRAYFDINNSPSEEQIQEMAEKSQLSQKVIKHWFRNTLFKERQ [G37Q]
label 1

Could you verify whether the entry RPRTRITDDQLKILRAYFDINNSPSEEQIQEMAEKSGLSQKVIKHWFRNTLFKWRQ [E54W] shows abundance fitness of no less than -0.07?
label 0

Please indicate if the recorded abundance fitness for RPRTRITDDQLKILRAYFDINNSPSEEQIQEMAEKSGLSQKVIKHWHRNTLFKERQ [F47H] meets or exceeds -0.07.
label 0

Can RPRTRITDDQLKILRAYFDINNSPSEEQIQSMAEKSGLSQKVIKHWFRNTLFKERQ [E31S] be said to have abundance fitness at or above -0.07?
label 0

Does the reported abundance fitness for RPRTRITDDQLKILRAYFDINNSPSENQIQEMAEKSGLSQKVIKHWFRNTLFKERQ [E27N] fall at or above the -0.07 mark?
label 1

# bool: abundance fitness of RPRTRITDDQLKILRAYFDINNSPSEEQIQEMAEKSGLSQKVIKHWFRNTLFKERR [Q56R] >= -0.07
label 1

State whether the measured abundance fitness reaches -0.07, counting equality as reaching it, for RPRTRITDDQLKILRAYFDINNSPSEEQIQEMAEKSGLSQKVHKHWFRNTLFKERQ [I43H]
label 0

Form field: abundance fitness at least -0.07? Entry: RPRTRITDDQLKILRAYFDINNSPSEEQIQERAEKSGLSQKVIKHWFRNTLFKERQ [M32R]
label 0

Entry RPRTRITDDQLKILRAYFDIFNSPSEEQIQEMAEKSGLSQKVIKHWFRNTLFKERQ [N21F] : is its abundance fitness no less than -0.07?
label 0

Does abundance fitness meet or surpass -0.07 for RPRTRITDDQLKILRAYFDINNSPSEEQIQEMAEKSGLSQKVIKHWFRNTTFKERQ [L51T] ?
label 1

Item RPRTRITDDQLKILRAYWDINNSPSEEQIQEMAEKSGLSQKVIKHWFRNTLFKERQ [F18W] with abundance fitness of -0.07 or above?
label 0

// provenance: the Human Domainome abundance scans (Beltran et al. 2025)
